Assay: Mean relative potency is the ratio of potencies of 'Ac-(Cha)RAMASL-NH2' and compound, to inhibit MHC class II DRB1*0401
Starred links: 1 amine or outer side, 2 acyl side, 3 side chain; linkers in the order of their positions; H or OH if unused. Non-standard residues stand in square brackets, D forms with d. Residues, ends and D or L forms follow the SMILES beside them. X11 = O=C([C@H](N[*:1])[C@H](O)[C@@H](O)[C@@H](O)CO)[*:2]; Cha = N[C@@H](CC1CCCCC1)C(=O)O
assay_endpoint: Mean relative potency

I. CSCC[C@H](NC(=O)[C@H](CCCN=C(N)N)NC(=O)[C@H](CC1CCCCC1)NC(C)=O)C(=O)N[C@@H](CCSC)C(=O)N[C@@H](C=O)[C@H](O)[C@@H](O)[C@@H](O)CO (Ac-[Cha]RMM[X11]-aldehyde)
II. CSCC[C@H](NC(=O)[C@H](C)NC(=O)[C@H](CCCN=C(N)N)NC(=O)[C@H](CC1CC2CCC1C2)NC(C)=O)C(=O)N[C@@H](C)C(=O)N[C@@H](CO)C(=O)N[C@@H](CC(C)C)C(N)=O (stereo in doubt; 2)
Form: Entry with minimum Mean relative potency (choose one): I / II Please respond with the label that marks your chosen entry.
I

* * *

Assay: Mean relative potency is the ratio of potencies of 'Ac-(Cha)RAMASL-NH2' and compound to inhibit MHC class II DRB1*0401
Starred links: 1 amine or outer side, 2 acyl side, 3 side chain; linkers in the order of their positions; H or OH if unused. Non-standard residues stand in square brackets, D forms with d. Residues, ends and D or L forms follow the SMILES beside them. Haic = O=C1[C@@H](N[*:1])CCc2cccc3c2N1[C@H](C(=O)[*:2])C3; Tic = O=C(O)[C@@H]1Cc2ccccc2CN1; Cha = N[C@@H](CC1CCCCC1)C(=O)O; NMeA = CN[C@@H](C)C(=O)O
assay_endpoint: Mean relative potency

compound: CSCC[C@@H](NC(=O)[C@H]1Cc2ccccc2CN1C(=O)[C@H](CCCN=C(N)N)NC(=O)[C@H](CC1CCCCC1)NC(C)=O)C(=O)N1CCC(c2ccccc2)[C@@H]1C(=O)N[C@@H](CO)C(=O)N(C)[C@@H](C)C(N)=O (stereo not given in full)
Mean relative potency: 0.63

I. CSCC[C@@H](NC(=O)[C@@H](c1ccccc1)N(C)C(=O)[C@H](CCCN=C(N)N)NC(=O)[C@H](CC1CCCCC1)NC(C)=O)C(=O)N[C@@H](C)C(=O)N[C@@H](CO)C(=O)N[C@H](C(N)=O)C(C)(C)C
II. CC(=O)N[C@@H](CC1CCCCC1)C(=O)N[C@@H](CCCN=C(N)N)C(=O)N1Cc2ccccc2C[C@H]1C(=O)N[C@H]1CCc2cccc3c2N(C1=O)[C@H](C(=O)N[C@@H](CO)C(=O)N(C)[C@@H](C)C(N)=O)C3 (Ac-[Cha]R[Tic][Haic]S[NMeA]-NH2)
Which value of Mean relative potency is smaller, the one for I or the one for II ? Answer by stating the label of the chosen item.
II

* * *

Assay: Mean relative potency is the ratio of potencies of 'Ac-(Cha)RAMASL-NH2' and compound to inhibit MHC class II DRB1*0401
Starred links: 1 amine or outer side, 2 acyl side, 3 side chain; linkers in the order of their positions; H or OH if unused. Non-standard residues stand in square brackets, D forms with d. Residues, ends and D or L forms follow the SMILES beside them. ξ: configuration not given here. Haic = O=C1[C@@H](N[*:1])CCc2cccc3c2N1[C@H](C(=O)[*:2])C3; NMePhg = CN[C@H](C(=O)O)c1ccccc1; Cha = N[C@@H](CC1CCCCC1)C(=O)O; NMeL = CN[C@@H](CC(C)C)C(=O)O; ξTle = CC(C)(C)C(N)C(=O)O; NMeA = CN[C@@H](C)C(=O)O
assay_endpoint: Mean relative potency

# annotated cases, reported Mean relative potency shown
compound: CSCCC(NC(=O)[C@H]1Cc2ccccc2CN1C(=O)[C@H](CCCN=C(N)N)NC(=O)[C@H](CC1CCCCC1)NC(C)=O)C(=O)N(C)[C@@H](C)C(=O)N[C@@H](CO)C(=O)N(C)[C@@H](C)C(N)=O (some centres not stated)
Mean relative potency: 1.05
--
compound: CSCC[C@@H](NC(=O)[C@@H](c1ccccc1)N(C)C(=O)[C@H](CCCN=C(N)N)NC(=O)[C@H](CC1CCCCC1)NC(C)=O)C(=O)N(C)[C@@H](C)C(=O)N[C@@H](CO)C(=O)N[C@H](C(N)=O)C(C)(C)C
Mean relative potency: 1.27
--
compound: CC(=O)N[C@@H](CC1CCCCC1)C(=O)N[C@@H](CCCN=C(N)N)C(=O)N(C)[C@H](C(=O)N[C@H]1CCc2cccc3c2N(C1=O)[C@H](C(=O)N[C@@H](CO)C(=O)NC(C(N)=O)C(C)(C)C)C3)c1ccccc1 (some centres not stated) (Ac-[Cha]R[NMePhg][Haic]S[ξTle]-NH2)
Mean relative potency: 0.23

1. CC(=O)N[C@@H](CC1CCCCC1)C(=O)N[C@@H](CCCN=C(N)N)C(=O)N(C)[C@H](C(=O)N[C@H]1CCc2cccc3c2N(C1=O)[C@H](C(=O)N[C@@H](CO)C(=O)N(C)[C@@H](CC(C)C)C(N)=O)C3)c1ccccc1 (Ac-[Cha]R[NMePhg][Haic]S[NMeL]-NH2)
2. CC(=O)N[C@@H](CC1CCCCC1)C(=O)N[C@@H](CCCN=C(N)N)C(=O)N(C)[C@@H](C)C(=O)N[C@H]1CCc2cccc3c2N(C1=O)[C@H](C(=O)N[C@@H](CO)C(=O)N(C)[C@@H](CC(C)C)C(N)=O)C3 (Ac-[Cha]R[NMeA][Haic]S[NMeL]-NH2)
3. CSCC[C@@H](NC(=O)[C@H](NC(=O)[C@H](CCCN=C(N)N)NC(=O)[C@H](CC1CCCCC1)NC(C)=O)C(C)(C)C)C(=O)N(C)[C@@H](C)C(=O)N[C@@H](CO)C(=O)N[C@H](C(N)=O)C(C)(C)C
Put the entries in order of Mean relative potency, starting with the largest number. Write out the labels following the order that was asked for.
3, 2, 1
(3: 0.38, 2: 0.18, 1: 0.11)
